Value source: PubChem BioAssay (NCI)

- System: T-47D breast
- Test Summary: NCI-60 one-dose screen, 48 h (100 = growth as untreated, 0 = no growth, -100 = all killed)
- Run Parameters: 10 µM unless noted
The panel holds about 83,000 compounds, 20% with a hit somewhere; the sample as a whole holds those more often.
compounds and their reported growth
Just the number in %, nothing appended.

>>> readout_value("Cn1cc(-c2cc3nc(-c4cn(C)c5ncc(Br)cc45)cc(N)n3n2)c2cc(Cl)ccc21")
-62
>>> readout_value("O=C1CCCc2cc(OCC(=O)N3CCCCC3)ccc2N1")
108
>>> readout_value("O=C1C(=Nc2ccc(F)c(Cl)c2)c2cccc3cccc1c23")
45.3

Req: What does the record list as growth for N#Cc1c(-c2cccnc2)cc(-c2ccc3ccccc3c2)[nH]c1=O ?
Resp: 93

Req: Repeat for the following compound: Cn1cc(-c2nc(N)nnc2-c2c[nH]c3ccc(Br)cc23)c2cccnc21
Resp: 62.5

Req: Repeat for the following compound: COc1cc(C2CC(c3cc(OC)c(OC)c(OC)c3)=NN2C(C)=O)ccc1OCc1ccc(F)cc1 (centres undefined)
Resp: 24.8

Req: Repeat for the following compound: OCNc1ccc(-n2cnc3cc(-c4ccc(O)cc4)ccc32)cc1C(F)(F)F
Resp: 23.8

Req: Repeat for the following compound: Cc1ccccc1[C@H]1C(C(=O)c2ccc(Cl)cc2)C2(N[C@@H]1c1ccccc1)C(=O)Nc1ccc(Cl)cc12 (some centres undefined)
Resp: 13

Req: Repeat for the following compound: Cn1cc(NC(=O)c2cc(NC(=O)c3ccc(C#Cc4ccccc4)cc3)cn2C)cc1C(=O)NCCCN1CCOCC1
Resp: 22.2

* * *

- System: EKVX NSCLC
- Test Summary: NCI-60 one-dose screen, 48 h (100 = growth as untreated, 0 = no growth, -100 = all killed)
- Run Parameters: 10 µM unless noted
The panel holds about 83,000 compounds, 20% with a hit somewhere; the sample as a whole holds those more often.
Values of growth greater than or equal to 80% map to y; values below map to n.

>>> qualitative_label("CCC(C)(C)c1ccc(OCCCCN2CCN(c3ccncc3)CC2)cc1")
"n"
>>> qualitative_label("COc1c(F)ccc(C(=O)Nc2ccc3nc(NC(=O)C4CCCN(S(=O)(=O)c5ccc(Cl)cc5)C4)sc3c2)c1F (centres undefined)")
"y"
>>> qualitative_label("Cn1nc(C(F)(F)F)cc1-c1cc(Cl)c(COc2ccc(Cl)cc2)c(-c2ccc(Cl)c(C(F)(F)F)c2)c1O")
"n"

Req: Tell me whether growth is at least 80% here: CC(=O)OC[C@@]1(C)C2CC[C@]3(C)C(CC=C4C5CC(C)(C)CC[C@]5(C(=O)Nc5ccc(Br)cc5)CC[C@]43C)[C@@]2(C)C[C@@H](OC(C)=O)[C@@H]1OC(C)=O (some centres undefined)
Resp: n

Req: Repeat for the following compound: O=C(COc1ccc(NC(=O)Nc2ccc(Cl)c(Cl)c2)cc1)N=Nc1c(O)[nH]c2ccc([N+](=O)[O-])cc12
Resp: y

Req: Repeat for the following compound: CCCCCCCCc1ccc(C(=O)Nc2cccc(P(=O)(O)O)c2)cc1
Resp: y

Req: Repeat for the following compound: Cn1cc(-c2cc(N)n3nc(-c4cn(C)c5ncccc45)cc3n2)c2cccnc21
Resp: y

Req: Repeat for the following compound: COc1c(F)ccc(C(=O)Nc2ccc3nc(NC(=O)C4CCCN(S(=O)(=O)c5cccc(Cl)c5)C4)sc3c2)c1F (centres undefined)
Resp: y
